target: EPHB2 (UniProt P29323); assay: phosphorylation enrichment, bacterial display (enrichment ratio); higher = better substrate or ligand; peptides without Tyr show the background;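 also: 11-residue human phosphosite peptides and single-mutation variants displayed on the E. coli surface, counted by deep sequencing, each peptide's frequency after selection divided by its frequency in the unselected input library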;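 also: frequency after pTyr selection over input frequency; kinase dosed for 20-30% of maximal phosphorylation in three min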
Sequence (P29323 whole entry, looked up): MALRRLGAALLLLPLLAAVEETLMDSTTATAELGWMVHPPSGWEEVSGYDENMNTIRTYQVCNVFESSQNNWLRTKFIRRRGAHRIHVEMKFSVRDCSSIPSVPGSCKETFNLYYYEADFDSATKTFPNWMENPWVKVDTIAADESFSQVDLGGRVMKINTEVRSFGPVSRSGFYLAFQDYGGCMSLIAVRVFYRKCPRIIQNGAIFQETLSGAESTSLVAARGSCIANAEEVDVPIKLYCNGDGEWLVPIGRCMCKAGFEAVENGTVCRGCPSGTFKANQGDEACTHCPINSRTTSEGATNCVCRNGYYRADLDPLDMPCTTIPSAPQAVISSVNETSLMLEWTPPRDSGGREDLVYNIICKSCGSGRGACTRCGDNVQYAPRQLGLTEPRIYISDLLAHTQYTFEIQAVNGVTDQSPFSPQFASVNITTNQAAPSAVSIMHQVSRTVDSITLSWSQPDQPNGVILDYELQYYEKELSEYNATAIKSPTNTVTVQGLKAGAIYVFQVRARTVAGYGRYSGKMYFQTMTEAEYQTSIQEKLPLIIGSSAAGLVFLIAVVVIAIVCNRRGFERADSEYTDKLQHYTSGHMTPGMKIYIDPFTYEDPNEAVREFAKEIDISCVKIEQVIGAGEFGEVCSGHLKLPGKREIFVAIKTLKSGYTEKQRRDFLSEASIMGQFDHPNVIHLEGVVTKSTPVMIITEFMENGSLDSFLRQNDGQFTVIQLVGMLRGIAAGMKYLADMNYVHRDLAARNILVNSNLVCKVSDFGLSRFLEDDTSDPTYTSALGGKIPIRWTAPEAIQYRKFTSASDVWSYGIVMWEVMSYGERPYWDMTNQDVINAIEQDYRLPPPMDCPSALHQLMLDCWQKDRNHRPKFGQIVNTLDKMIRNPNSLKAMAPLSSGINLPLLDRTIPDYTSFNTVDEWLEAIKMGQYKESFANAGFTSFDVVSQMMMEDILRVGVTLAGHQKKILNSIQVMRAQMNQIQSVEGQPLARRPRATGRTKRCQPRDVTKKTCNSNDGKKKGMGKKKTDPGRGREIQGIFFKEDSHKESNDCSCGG
metric: phosphorylation enrichment
Enter the number alone.

- ELPEKYSQNIC [PKP2_Y626_Y631C]: 0.605

Problem: What value of phosphorylation enrichment has been recorded for this entry: VNFQPYRKHKF [TEX37_Y28_D24N_YF]
Result: 0.386

Problem: Field request: phosphorylation enrichment | item: TDIVAYSGRVQ [SPTBN2_Y477]
Result: 2.04

Problem: Look up phosphorylation enrichment: YSGDCYRIQGR [DDR2_Y741_Y740C]
Result: 0.514

Problem: What phosphorylation enrichment value was documented for this sequence, TPTFPYLLPKS [PLD2_Y580_YF] ?
Result: 0.464

Problem: Please give the measured phosphorylation enrichment for this sequence: DTYDPYLDIAL [USP36_Y268_V271I]
Result: 0.892

Problem: Find the recorded phosphorylation enrichment belonging to ITLKGYNLSNS [GNPTAB_Y728_K732N] and report it.
Result: 0.487

====

test system: c-Abl (mouse); assay: phosphorylation enrichment, bacterial display (enrichment ratio); higher = better substrate or ligand; peptides without Tyr show the background
So basically: phosphorylation enrichment at 0.6 or higher? That is MET. Lower than 0.6? That is NOT MET.

Observe how each entry below is paired with its result.
• IFGVSYGEFRF [CFTR_Y512_D513G_YF] = MET
• KGYRGYSYDDI [TMEM230_Y110] = NOT MET
• FLTQHYDAEPQ [ANG_Y38_K41E] = MET

Please find the next sequence below.
Problem: Determine whether this sequence has phosphorylation enrichment no lower than 0.6: HNGVSYYINLC [IGF2R_Y2024]
Result: MET

====

phosphorylation enrichment: recorded values
target: MERTK (UniProt Q12866); assay: phosphorylation enrichment, bacterial display (enrichment ratio); higher = better substrate or ligand; peptides without Tyr show the background
Sequence (Q12866 whole entry, looked up): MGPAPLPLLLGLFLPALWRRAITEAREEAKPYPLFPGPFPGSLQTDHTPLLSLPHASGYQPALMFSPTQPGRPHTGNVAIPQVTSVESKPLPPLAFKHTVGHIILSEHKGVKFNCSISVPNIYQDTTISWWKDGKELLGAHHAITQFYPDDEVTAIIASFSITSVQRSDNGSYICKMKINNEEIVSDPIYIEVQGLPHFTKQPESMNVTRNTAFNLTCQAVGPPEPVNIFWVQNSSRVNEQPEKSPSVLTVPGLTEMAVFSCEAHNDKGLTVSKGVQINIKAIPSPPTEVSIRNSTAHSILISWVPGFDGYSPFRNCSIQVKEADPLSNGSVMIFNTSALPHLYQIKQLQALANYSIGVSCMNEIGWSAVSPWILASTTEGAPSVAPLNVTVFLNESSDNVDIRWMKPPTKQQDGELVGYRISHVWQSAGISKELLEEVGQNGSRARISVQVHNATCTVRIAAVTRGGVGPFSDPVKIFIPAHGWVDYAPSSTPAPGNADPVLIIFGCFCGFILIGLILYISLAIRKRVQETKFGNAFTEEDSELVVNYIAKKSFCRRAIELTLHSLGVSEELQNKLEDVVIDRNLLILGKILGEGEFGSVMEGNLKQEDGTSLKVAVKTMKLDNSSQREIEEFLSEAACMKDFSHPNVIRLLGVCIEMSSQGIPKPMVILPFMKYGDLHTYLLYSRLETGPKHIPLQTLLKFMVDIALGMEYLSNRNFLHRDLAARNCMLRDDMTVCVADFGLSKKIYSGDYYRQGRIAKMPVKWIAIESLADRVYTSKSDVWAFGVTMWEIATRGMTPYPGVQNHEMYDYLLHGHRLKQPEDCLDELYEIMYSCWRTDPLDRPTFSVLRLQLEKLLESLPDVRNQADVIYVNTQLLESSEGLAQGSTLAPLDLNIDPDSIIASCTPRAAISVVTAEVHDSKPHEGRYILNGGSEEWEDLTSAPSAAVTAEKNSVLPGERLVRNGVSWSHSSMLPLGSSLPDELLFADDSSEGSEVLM
// return a plain number; no unit text

- DFFDLYGGEKK [PTPN11_Y66_F71K_YF]: 0.499
- NQNIGYELGHR [KCNN3_Y268_K269E]: 0.276
- AKAFIYASHIV [ZNF573_Y229_G224A]: 0.501
- DDHFTYSRYPW [LY75_Y888]: 1.23

Now for the sequence whose phosphorylation enrichment we want.
Problem: Can you look up the measured phosphorylation enrichment of LLVVLNKFRCF [PSEN1_Y154_Y154N_YF] for me?
Result: 0.795

====

This listing pairs sequences with measured phosphorylation enrichment.
target: Jak2 (UniProt O60674); experiment: phosphorylation enrichment, bacterial display (enrichment ratio); higher = better substrate or ligand; peptides without Tyr show the background
Sequence (O60674 whole entry, looked up): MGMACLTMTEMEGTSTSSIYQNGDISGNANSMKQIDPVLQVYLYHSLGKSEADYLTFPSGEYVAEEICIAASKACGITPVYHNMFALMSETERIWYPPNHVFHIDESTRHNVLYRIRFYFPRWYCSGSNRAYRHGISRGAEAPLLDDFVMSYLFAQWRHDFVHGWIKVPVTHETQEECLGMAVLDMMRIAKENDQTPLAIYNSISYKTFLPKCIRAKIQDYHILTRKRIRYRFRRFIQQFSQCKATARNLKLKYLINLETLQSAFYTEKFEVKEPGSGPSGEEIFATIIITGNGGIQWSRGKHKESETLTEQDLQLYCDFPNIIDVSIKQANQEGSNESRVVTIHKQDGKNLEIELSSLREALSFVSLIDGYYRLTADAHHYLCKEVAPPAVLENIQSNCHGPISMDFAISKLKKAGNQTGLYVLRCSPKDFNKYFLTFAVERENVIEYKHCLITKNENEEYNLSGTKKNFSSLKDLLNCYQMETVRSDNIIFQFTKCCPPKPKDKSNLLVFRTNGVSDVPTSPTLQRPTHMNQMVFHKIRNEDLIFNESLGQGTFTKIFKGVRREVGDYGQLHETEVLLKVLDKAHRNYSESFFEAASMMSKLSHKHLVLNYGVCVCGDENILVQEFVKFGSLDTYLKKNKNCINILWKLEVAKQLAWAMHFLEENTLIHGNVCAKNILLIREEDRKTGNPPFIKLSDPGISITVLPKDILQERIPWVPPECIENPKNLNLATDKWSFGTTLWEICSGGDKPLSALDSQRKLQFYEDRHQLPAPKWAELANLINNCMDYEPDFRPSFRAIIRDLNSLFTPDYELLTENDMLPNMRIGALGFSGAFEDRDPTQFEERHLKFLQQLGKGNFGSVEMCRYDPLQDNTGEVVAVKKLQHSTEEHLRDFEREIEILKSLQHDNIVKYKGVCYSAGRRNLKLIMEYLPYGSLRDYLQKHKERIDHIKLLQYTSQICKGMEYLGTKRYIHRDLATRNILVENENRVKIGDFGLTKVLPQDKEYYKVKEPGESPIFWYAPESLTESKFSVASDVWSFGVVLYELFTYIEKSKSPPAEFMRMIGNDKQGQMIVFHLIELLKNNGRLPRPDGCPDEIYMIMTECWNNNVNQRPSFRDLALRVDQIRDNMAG
Write the value as a bare number.

Recorded results for 5 sequences are shown here.
* FKWAVYCIIGR [NUP93_Y391_R388W_YF] | 1.03
* WVFNHYRWIIW [BRCA2_Y2624_YF] | 1.36
* SREDIYKRNTE [PDE4DIP_Y45_I49T] | 0.81
* CPFNLYAEQFS [HGD_Y40_L44F_YF] | 1.34
* RQQEDYLLFKQ [RARRES1_Y159_YF] | 1.39

Problem: Entry under review: HISGVYKLPPD [ANGPTL7_Y145_R140H] . Reported phosphorylation enrichment?
Result: 1

Problem: Entry under review: PNLILYGDFRQ [MYH7_Y715_R712L] . Reported phosphorylation enrichment?
Result: 0.75

Problem: Given the entry MHDSNCVSKGS [PDGFRA_Y849_Y849C] , report its measured phosphorylation enrichment.
Result: 0.683

Problem: Please look up its phosphorylation enrichment: ENKGVYVPMSG [IVD_Y277_L279P]
Result: 0.517

Problem: Which phosphorylation enrichment value is on record for DDHFTYSRYPW [LY75_Y888] ?
Result: 1.13

Problem: Find the recorded phosphorylation enrichment belonging to RRVLVYGDRGA [QDPR_Y16_G18D] and report it.
Result: 0.485

Problem: Return reported phosphorylation enrichment; argument: MILSAYALGGL [CPS1_Y590_R587L]
Result: 0.928

Problem: Find the recorded phosphorylation enrichment belonging to QWQQLYDTLNA [EIF3M_Y351] and report it.
Result: 1.06

Problem: Data request, read-out phosphorylation enrichment, for FTNRNYDLDFD [MYC_Y12_YF]
Result: 1.22

Problem: Find the recorded phosphorylation enrichment belonging to SGSIHYSCVPR [GLB1_Y57_R59C] and report it.
Result: 1.06
